Attribution: PubChem BioAssay AID1918991

Test system: 186277-243-T-J2-PDC complex spheroid growth;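 also: luminescent signal used as a stand-in for viable cell amount; spheroids exposed to compounds for seven days before the viability read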
ASSAY REMARKS: Anticancer human tumor 186277-243-T-J2-PDC patient-derived colon adenocarcinoma cell line growth inhibition [AhR]; active = viability on the fitted dose curve at most 10% of control; inactive = the rest
ASSAY CONTEXT: second compound 1 µM; first compound 3.16 µM
Pick one and only one: active, inactive

Answered cases to consult:
CC1COCCN1c1cc(C2(S(C)(=N)=O)CC2)nc(-c2ccnc3[nH]ccc23)n1 (centres undefined) + CC(CO)NC(=O)c1cc(-c2ccc(Cl)cc2)nn(-c2cnn(C)c2)c1=O: active
COc1cccc2c1C(=O)c1c(O)c3c(c(O)c1C2=O)CC(O)(C(=O)CO)CC3OC1CC(N)C(O)C(C)O1 (centres undefined) + Cc1ccccc1N=Nc1ccc(NC(=O)c2ccnn2C)c(C)c1: active
CC(C)c1c(-c2ccccc2)nc2c(C#N)c[nH]n2c1=O + CC(CO)NC(=O)c1cc(-c2ccc(Cl)cc2)nn(-c2cnn(C)c2)c1=O: inactive

--- query ---
Call for entry COc1cccc2c1C(=O)c1c(O)c3c(c(O)c1C2=O)CC(O)(C(=O)CO)CC3OC1CC(N)C(O)C(C)O1 (centres undefined) + CC(CO)NC(=O)c1cc(-c2ccc(Cl)cc2)nn(-c2cnn(C)c2)c1=O :
active
